Examples of binders with documented Kd follow.
# MEASUREMENT TARGET: Recombinant human his-tagged IGF R extracellular domain protein (human) (UniProt P08069)
# PROTOCOL DETAILS: SPR, Ab captured via anti-huIgG Fc, pH 7.4
The figure you give is taken to be in nM; do not add the unit.

Reference set (4 entries):
BINDER | MEASUREMENT TYPE | MEASUREMENT
VRDN-02068 (antibody, V domains shown) VH: QVQLQESGPGLVKPSETLSLTCTVSGYSITGGYLWNWIRQPPGKGLEWIGYIHYDGTNNYKPSLKDRVTISRDTSKNQFSLKLSSVTAADTAVYYCARYGRVFFDYWGQGTLVTVSS VL: DIVMTQSPLSLPVTPGEPASISCRSSQSIVHSNGNTYLQWYLQKPGQSPQLLIYKVSNRLYGVPDRFSGSGSGTDFTLKISRVEAEDVGVYYCFQGSHVPHTFGQGTKVEIK | Kd | 0.249
VRDN-02031 (antibody, V domains shown) VH: QVQLQESGPGLVKPSETLSLTCTVSGYSITGGYLWNWIRQPPGKGLEWIGYISYDGTNNYKPSLKDRVTISRDTSKNQFSLKLSSVTAADTAVYYCARYGRVFFDYWGQGTLVTVSS VL: DIVMTQSPLSLPVTPGEPASISCRSHQSIVHSNGNTYLQWYLQKPGQSPQLLIYKVSNRLYGVPDRFSGSGSGTDFTLKISRVEAEDVGVYYCFQGSHVPWTFGQGTKVEIK | Kd | 0.468
VRDN-02014 (antibody, V domains shown) VH: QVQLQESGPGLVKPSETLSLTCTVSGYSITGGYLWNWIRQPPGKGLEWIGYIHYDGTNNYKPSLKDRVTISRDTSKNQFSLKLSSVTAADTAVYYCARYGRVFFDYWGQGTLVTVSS VL: DIVMTQSPLSLPVTPGEPASISCRSSQSIVHSNGNTYLQWYLQKPGQSPQLLIYKVSNRLYGVPDRFSGSGSGTDFTLKISRVEAEDVGVYYCFQGSHVPWTFGQGTKVEIK | Kd | 0.697
VRDN-02006 (antibody, V domains shown) VH: QVQLQESGPGLVKPSETLSLTCTVSGYSITHGYLWNWIRQPPGKGLEWIGYISYDGTNNYKPSLKDRVTISRDTSKNQFSLKLSSVTAADTAVYYCARYGRVFFDYWGQGTLVTVSS VL: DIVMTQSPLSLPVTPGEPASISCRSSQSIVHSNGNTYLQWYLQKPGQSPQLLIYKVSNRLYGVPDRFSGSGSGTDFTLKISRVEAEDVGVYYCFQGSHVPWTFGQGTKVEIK | Kd | 1.08

Memo: VRDN-02073 (antibody, V domains shown) VH: QVQLQESGPGLVKPSETLSLTCTVSGYSITGGYLWNWIRQPPGKGLEWIGYIHYDGTNNYKPSLKDRVTISRDTSKNQFSLKLSSVTAADTAVYYCARHGRVFFDYWGQGTLVTVSS VL: DIVMTQSPLSLPVTPGEPASISCRSHQSIVHSNGNTYLQWYLQKPGQSPQLLIYKVSNRLYGVPDRFSGSGSGTDFTLKISRVEAEDVGVYYCFQGSHVPHTFGQGTKVEIK , reported Kd: 0.261
